test-name: soluble on expression in E. coli; label from the status in PepcDB or PDB records
measurement-name: soluble on expression in E. coli

Returns the measured soluble on expression in E. coli for the input sequence. Input: MASKYAVKLKTDFDNPRWIKRHKHMFDFLDINGNGKITLDEIVSKASDDICAKLEATPEQTKRHQVCVEAFFRGCGMEYGKEIAFPQFLDGWKQLATSELKKWARNEPTLIREWGDAVFDIFDKDGSGTITLDEWKAYGKISGISPSQEDCESTFRHCDLDNAGDLDVDEMTRQHLGFWYTLDPEADGLYGNGVP
soluble

Same thing, different sequence: MSKVALFAGGDLSYISRDFDYFVGIDRGSLFLLENGLPLNMAVGDFDSVSQKAFTDIKEKAELFITAHPEKNDTDTELALKEVFARFPEAEVTIFGAFGGRMDHLLSNIFLPSDPGIAPFMAQIALRDQQNMITYRPAGQHLIHQEEGMTYVAFMAEGEADLTITGAKFELTQDNFFKKKIYSSNAFIHQPITVSLPSGYLIIIQSKDWS
soluble

* * *

test-name: soluble on expression in E. coli; label from the status in PepcDB or PDB records
measurement-name: soluble on expression in E. coli

Returns the measured soluble on expression in E. coli for the input sequence. Input: MSSSSGNQNSKEHKVAVTHDLGKTNVPEHPKRVVVLELGFIDTLLDLGITPVGVADDNKAKQLINKDVLKKIDGYTSVGTRSQPSMEKIASLKPDLIIADTTRHKKVYDQLKKIAPTIALNNLNADYQDTIDASLTIAKAVGKEKEMEKKLTAHEEKLSETKQKISANSQSVLLIGNTNDTIMARDENFFTSRLLTQVGYRYAISTSGNSDSSNGGDSVNMKMTLEQLLKTDPDVIILMTGKTDDLDADGKRPIEKNVLWKKLKAVKNGHVYHVDRAVWSLRRSVDGANAILDELQKEMPAAKKLEHHHHHH
not soluble

Same thing, different sequence: MAPTPKFGPKKIQNVSAVSCSVKKYQASTSSPVPILNVQERVELRKLEQMLPVSPKNCDPADVVLRAASYIDQLVATVQARVKNGTLPMGALSSLPPQYSKPIKSSRRTVSSKKSRRSMEKKR
not soluble

* * *

test-name: soluble on expression in E. coli; label from the status in PepcDB or PDB records
measurement-name: soluble on expression in E. coli

Returns the measured soluble on expression in E. coli for the input sequence. Input: MIEMLLYEDTRMRAVEILRSLPIGNSGVSGLVQLAATLGASVEFRPSIPPFPESLSKKMNKTQKYTSTQMSQKFDNASHSPTK
not soluble

Same thing, different sequence: MGSDKIHHHHHHMSREINAGGHHFLYGGISRGVHYWDNKDFSEQSLRLSFGHQNRSVTRSFGTVPFVGQNLLGGSRYNFAGGFNADFSRRLGERWRLTLNAGNMWKHYQEDRTAARYGSHMPLAGATLMYSAPKDRLLYGGADWPHDMTKEAEQASVRKGLRVGAVKTFDGGLGLRANLRYTRRTFDAPGTIVYRFPRKDHEYQANLSLRHDKISWKGFTPQLNFRYLKIGSNMKSFYTRKNTQIFMSVEKDFK
not soluble

Same thing, different sequence: MGSDKIHHHHHHMKFPRIGLPKEKVIELINEKTKKDLTFSSGKILGSMCTMPHDLAIEVYTKYIDRNLGDPGLHPGTRKIEEEVIEMISDLLHLEKGHGHIVSGGTEANILAVRAFRNLSDVEKPELILPKSAHFSFIKAGEMLGVKLVWAELNPDYTVDVRDVEAKISDNTIGIVGIAGTTGLGVVDDIPALSDLARDYGIPLHVDAAFGGFVIPFAKELGYELPDFDFKLKGVQSITIDPHKMGMAPIPAGGIVFRRKKYLKAISVLAPYLAGGKVWQATITGTRPGASVIAVWALIKHLGFEGYMRIVERAMKLSRWFAEEIKKINNAWLVREPMLNIVSFQTKNLKKVERELKSRGWGISAHRGYIRIVFMPHVTREMIEEFLKDLKEVLS
not soluble

These entries and their values trace back to the DeepSol protein solubility set.
